Each recorded value in this set is attributed to patent US12364702B2.

# Assay target: STING (Homo sapiens, UniProt Q86WV6)
# Sequence (Q86WV6 whole entry): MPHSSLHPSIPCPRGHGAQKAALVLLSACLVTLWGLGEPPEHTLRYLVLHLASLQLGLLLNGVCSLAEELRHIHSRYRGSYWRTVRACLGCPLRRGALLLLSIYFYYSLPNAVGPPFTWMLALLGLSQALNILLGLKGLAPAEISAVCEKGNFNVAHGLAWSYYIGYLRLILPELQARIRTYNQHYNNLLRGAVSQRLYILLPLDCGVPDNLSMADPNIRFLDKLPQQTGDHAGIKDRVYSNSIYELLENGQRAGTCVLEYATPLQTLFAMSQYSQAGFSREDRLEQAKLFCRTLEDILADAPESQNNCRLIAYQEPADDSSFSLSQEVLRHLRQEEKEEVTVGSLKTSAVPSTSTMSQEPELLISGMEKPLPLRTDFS
# Measurement protocol: IFN-β secretion from THP1 by STING activation (hIFNβ ELISA)
# Assay type: cell-based
# Particulars: THP1 cells; 24 h incubation; IFN-β in supernatant; top dose set according to solubility; read-out: hIFNβ ELISA (EC50)
Measurement type: EC50 (µM)
Give just the number in µM; leave the unit off.

Worked examples, 2 molecules total:
CCn1nc(C)cc1C(=O)Nc1nc2cc(C(N)=O)cc(OCCCNC(=O)CN3CCC(O)CC3)c2n1CCC[C@H]1COc2cc(C(N)=O)cc3nc(NC(=O)c4cc(C)nn4CC)n1c23 :: 4.7
CCn1nc(C)cc1C(=O)Nc1nc2cc(C(N)=O)cc(OCCCNC(=O)C[C@H]3COCCN3)c2n1CCC[C@H]1COc2cc(C(N)=O)cc3nc(NC(=O)c4cc(C)nn4CC)n1c23 :: 12

Ask: Give the measured EC50 of CCn1nc(C)cc1C(=O)Nc1nc2cc(C(N)=O)cc(OCCOCCOC)c2n1CCC[C@H]1COc2cc(C(N)=O)cc3nc(NC(=O)c4cc(C)nn4CC)n1c23 .
Reply: 0.7

Ask: // repeat for CCn1nc(C)cc1C(=O)Nc1nc2cc(C(N)=O)cc(OCCCNC(=O)CN3CCOCC3)c2n1CCC[C@H]1COc2cc(C(N)=O)cc3nc(NC(=O)c4cc(C)nn4CC)n1c23 and report
Reply: 1.4

----------
// values below are reported pEC50
# Assay target: STING (Homo sapiens, UniProt Q86WV6)
# Measurement protocol: IFN-β secretion from THP1 by STING activation (hIFNβ ELISA)
# Assay type: cell-based
# Particulars: THP1 cells; 24 h incubation; IFN-β in supernatant; top dose set according to solubility; read-out: hIFNβ ELISA (EC50)
# Procedure: In this assay, activation of STING by compounds was evaluated by detecting their ability to stimulate the secretion of IFN-β (interferon-beta) from THP1. THP1 was purchased from National Collection of Authenticated Cell Cultures (Cat #TCHu 57). The top dose of compounds was setted according to their solubility. First, Compounds were 3 times diluted with medium, 8-dose points in total. […] The concentration of IFN-β in the supernatant was measured using a human IFNβ ELISA KIT (R&D, DY814-05). […]
The value called pEC50 is obtained by taking minus log10 of the concentration in mol/L.

A selection of reference data follows.
CCn1nc(C)cc1C(=O)Nc1nc2cc(C(N)=O)cc(OCCCNC(=O)CN3CCOCC3)c2n1CCC[C@H]1COc2cc(C(N)=O)cc3nc(NC(=O)c4c(Cl)c(C)nn4CC)n1c23 [Example 55] :: 5.92
CCn1nc(C)cc1C(=O)Nc1nc2cc(C(N)=O)cc(OCCCOC)c2n1CCC[C@H]1COc2cc(C(N)=O)cc3nc(NC(=O)c4c(F)c(C)nn4CC)n1c23 [Example 50] :: 5.80
CCn1nc(C)cc1C(=O)Nc1nc2cc(C(N)=O)cc(OCCCN(C)C(C)=O)c2n1CCC[C@H]1COc2cc(C(N)=O)cc3nc(NC(=O)c4cc(C)nn4CC)n1c23 [Example 27] :: 5.41

Ask: Return reported pEC50; argument: CCn1nc(C)cc1C(=O)Nc1nc2cc(C(N)=O)cc(OCCCN=C(N(C)C)N(C)C)c2n1CCC[C@H]1COc2cc(C(N)=O)cc3nc(NC(=O)c4cc(C)nn4CC)n1c23 [Example 56]
Reply: 4.76

Ask: Check CCn1nc(C)cc1C(=O)Nc1nc2cc(C(N)=O)cc(OCCCN(C)C)c2n1CCC[C@H]1COc2cc(C(N)=O)cc3nc(NC(=O)c4cc(C)nn4CC)n1c23 [Example 18] too.
Reply: 4.74

Ask: Proceed to CCn1nc(C)cc1C(=O)Nc1nc2cc(C(N)=O)cc(OCCCO)c2n1CCC[C@H]1COc2cc(C(N)=O)cc3nc(NC(=O)c4cc(C)nn4CC)n1c23 [Example 6]
Reply: 5.32

Ask: Param item: CCn1nc(C)cc1C(=O)Nc1nc2cc(C(N)=O)cc(OCCCO)c2n1CCC[C@H]1CN(C)c2cc(C(N)=O)cc3nc(NC(=O)c4cc(C)nn4CC)n1c23 [Example 57]
Reply: 5.59

Ask: Follow-up entry: CCn1nc(C)cc1C(=O)Nc1nc2cc(C(N)=O)cc(OCCCOC)c2n1CCC[C@H]1COc2cc(C(N)=O)cc3nc(NC(=O)c4c(Br)c(C)nn4CC)n1c23 [Example 9]
Reply: 5.59

Ask: Moving on to the next molecule: CCn1nc(C)cc1C(=O)Nc1nc2cc(C(N)=O)cc(OCCOC)c2n1CCC[C@H]1COc2cc(C(N)=O)cc3nc(NC(=O)c4cc(C)nn4CC)n1c23 [Example 19]
Reply: 5.21
